Each recorded value in this set is attributed to patent US20050037394.

system-tested: IFN-gamma (Homo sapiens, UniProt P01579 P01579:24-161)
Sequence (P01579 24-161, one chain of several): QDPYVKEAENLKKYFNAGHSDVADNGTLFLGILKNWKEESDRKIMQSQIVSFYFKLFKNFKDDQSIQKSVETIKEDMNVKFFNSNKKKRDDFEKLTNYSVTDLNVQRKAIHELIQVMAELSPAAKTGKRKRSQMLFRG
procedure-details: inhibition; ELISA day 2; text assigns ARC872 to E3 but printed sequence matches F3
measurement-conditions: tags: R&D Systems, Minneapolis; chain copies: 2; putative G4
Method: IFN-γ ELISA: The following ELISA method was used to measure the ability of IFN-γ aptamers to inhibit hIFN-γ from binding to the IFNγ-R1 receptor. To capture the IFNγ-R1, 175 ng of IFNγ-R1 (R&D systems, Minneapolis, Minn.) in 100 μl of PBS (pH 7.4) was incubated in each well of a Nunc Maxisorb plate (Nunc, Rochester, N.Y.) for 2 hours at room temperature. […] Subsequently, 100 μl of 2 N H₂SO₄ was added to stop the reaction and the plate was read in a SpectraMax 96 well plate reader at […]. […]
test-readout: pIC50
// pIC50 here means minus log10 of the molar concentration (mol/L)

Given GGGCGGUUGGGGUCGGGGAGGAUGGUACAGGG (mixed, dRmY: deoxy A,G; 2'-OMe C,U) [ARC872] , state its recorded pIC50. 6.70
